Study system: K-Ras (G12D) (Homo sapiens, UniProt P01116, G12D)
Sequence (P01116 1-188 isoform P01116-2 G12D): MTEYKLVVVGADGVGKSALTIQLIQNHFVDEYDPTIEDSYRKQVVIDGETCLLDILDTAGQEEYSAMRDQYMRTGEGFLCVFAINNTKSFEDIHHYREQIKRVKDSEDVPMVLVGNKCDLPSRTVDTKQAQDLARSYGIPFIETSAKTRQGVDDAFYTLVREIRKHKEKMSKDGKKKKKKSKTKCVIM
Experimental protocol: Scintillation Proximity Assay (SPA), GTP affinity
Assay type: binding
Measurement name: Kd (nM)
Give the number; nM is assumed, so skip it.

Incoming: Query (compound): `Nc1nc2c(ncn2[C@@H]2O[C@H](COP(=O)(O)OP(=O)(O)OP(=O)(O)O)[C@@H](O)[C@H]2O)c(=O)[nH]1` ; field requested: Kd
Outgoing: 270

----------
Study system: Rac-1 (Homo sapiens)
Experimental protocol: Ras GTP binding domain inhibition assay (Cy3-GTP/Cy5-GTP competition)
Details: with SOS, read-out: Rac-1 + SOS: % inh.
Measurement name: inhibition at 20 µM

Reference set, count: 3
• CO[C@H]1CC[C@@H](Nc2nc(-c3nccn3C)nc3sc(C(=O)NC(C)C)c(-c4ccccc4)c23)C1 [drawing 1059] = 76 to 100%
• COCCN(C)C(=O)c1nc(-c2ccccn2)nc(O)c1O [drawing 945] = 51 to 75%
• COCCNC(=O)c1sc2nc(-c3nccn3C)nc(N[C@@H]3CC[C@H](OC)C3)c2c1-c1ccccc1 [drawing 1060] = 76 to 100%

Incoming: Query (compound): COCCn1ccnc1-c1nc(O)c2scc(-c3ccc(OCC(C)C)nc3)c2n1 [drawing 1033] ; field requested: inhibition at 20 µM
Outgoing: 76 to 100%

Incoming: Query (compound): COC1CCN(c2nc(-c3nccn3C)nc3sc(-c4ccn(C)n4)c(-c4ccccc4)c23)CC1 [drawing 991] ; field requested: inhibition at 20 µM
Outgoing: 26 to 50%

Incoming: Query (compound): COc1cccc(Cn2ccnc2-c2nc(O)c3scc(-c4ccccn4)c3n2)c1 [drawing 985] ; field requested: inhibition at 20 µM
Outgoing: 76 to 100%

----------
# Lookup of reported inhibition at 10 µM keyed by entry
Test system: MAPK phosphorylation
Experimental protocol: Western MAPK cell-based phosphorylation assay, MIA PaCa-2
Details: Homo sapiens, 10 μM, 6 hours, EGF stimulation

- CO[C@H]1CCC(Nc2nc(-c3nccn3C)nc3sc(-c4ccn(C)n4)c(-c4ccccc4)c23)C1 (stereo partly drawn) [drawing 406]: 76 to 100%
- CO[C@@H]1CCC(Nc2nc(-c3nccn3C)nc3sc(-c4ccn(C)n4)c(-c4ccccc4)c23)C1 (stereo partly drawn) [drawing 407]: 0%

Now consider the entry below.
Incoming: Query (compound): COCCNc1nc(-c2nccn2C)nc2sc(-c3cccc(OC)c3Cl)c(-c3ccccc3)c12 [drawing 425] ; field requested: inhibition at 10 µM
Outgoing: 76 to 100%

----------
Study system: K-Ras (wild type) (Homo sapiens, UniProt P01116)
Sequence (P01116 1-188 isoform P01116-2): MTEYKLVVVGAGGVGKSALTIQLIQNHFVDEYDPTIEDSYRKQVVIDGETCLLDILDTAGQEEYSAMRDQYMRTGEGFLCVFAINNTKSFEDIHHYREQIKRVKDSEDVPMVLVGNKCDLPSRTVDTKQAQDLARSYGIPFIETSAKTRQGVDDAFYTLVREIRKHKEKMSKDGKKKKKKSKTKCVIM
Experimental protocol: Scintillation Proximity Assay (SPA), GTP affinity
Assay type: binding
Measurement name: Kd (nM)
Give the number; nM is assumed, so skip it.

Incoming: Query (molecule): `Nc1nc2c(ncn2[C@@H]2O[C@H](COP(=O)(O)OP(=O)(O)OP(=O)(O)O)[C@@H](O)[C@H]2O)c(=O)[nH]1` ; field requested: Kd
Outgoing: 243

----------
Study system: UniProtKB P61586
Sequence (P61586 1-190): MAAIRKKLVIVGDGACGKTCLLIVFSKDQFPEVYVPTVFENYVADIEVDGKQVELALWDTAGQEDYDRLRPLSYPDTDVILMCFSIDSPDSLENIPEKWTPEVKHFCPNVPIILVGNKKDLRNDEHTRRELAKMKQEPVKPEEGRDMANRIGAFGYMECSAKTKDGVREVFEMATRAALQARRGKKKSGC
Experimental protocol: Ras GTP binding domain inhibition assay (Cy3-GTP/Cy5-GTP competition)
Details: with SOS, read-out: Rho-A + SOS: % inh.
# Lookup of reported inhibition at 20 µM keyed by entry

Reference set, count: 3
- COc1cccc(-c2sc3nc(-c4nccn4C)nc(N[C@H]4C[C@@H](OC)C4)c3c2-c2ccccc2)c1F [drawing 1026]: 51 to 75%
- CO[C@H]1C[C@@H](Nc2nc(-c3nccn3C)nc3sc(-c4cnn(C)c4)c(-c4ccccc4)c23)C1 [drawing 1027]: 76 to 100%
- COC1CCN(c2nc(-c3nccn3C)nc3sc(-c4ccnn4C)c(-c4ccccc4)c23)C1 (stereo not shown) [drawing 972]: 76 to 100%

Incoming: State its inhibition at 20 µM on UniProtKB P61586: CC(C)COc1ccc(-c2csc3c(O)nc(-c4nccn4Cc4ccccn4)nc23)cn1 [drawing 1034]
Outgoing: 76 to 100%

----------
Tested on: KRas wild type
Experimental protocol: Ras GTP binding domain inhibition assay (Cy3-GTP/Cy5-GTP competition)
Parameters: species or system human
Details: 20 μM; with SOS (Table 7A)
Measurement name: KRas wild type + SOS: % inh.

Reference set, count: 4
• COc1c(O)nc(-c2ccccn2)nc1Oc1ccc(C(=O)N(C)C)cc1 [drawing 879] = A (1-25% inhibition)
• COC1CCC(Nc2nc(-c3nccn3C)nc3sc(-c4cccc5[nH]ncc45)c(-c4ccccc4)c23)C1 (centres unmarked) [drawing 888] = D (76-100% inhibition)
• COc1nc(-c2ccccn2)nc2c(-c3ccccn3)csc12 [drawing 913] = A (1-25% inhibition)
• CC(C)COc1ccc(-c2csc3c(O)nc(-c4nccn4Cc4ccccn4)nc23)cn1 [drawing 899] = C (51-75% inhibition)

Incoming: Query (compound): CO[C@H]1C[C@H](Nc2nc(-c3nccn3C)nc3sc(-c4ccn(C)n4)c(-c4ccccc4)c23)C1 [drawing 906] ; field requested: KRas wild type + SOS: % inh.
Outgoing: D (76-100% inhibition)

Incoming: Query (compound): Cn1ccc(-c2sc3nc(-c4nccn4C)nc(N[C@@H]4CC[C@H](O)C4)c3c2-c2ccccc2)n1 (racemic) [drawing 909] ; field requested: KRas wild type + SOS: % inh.
Outgoing: A (1-25% inhibition)

Incoming: Query (compound): CO[C@H]1C[C@@H](Nc2nc(-c3ccccn3)nc3sccc23)C1 [drawing 902] ; field requested: KRas wild type + SOS: % inh.
Outgoing: C (51-75% inhibition)

----------
Study system: Rac-1 and Rho-A
Experimental protocol: SPA and MST studies, GTP affinity for Rho subfamily members
Details: read-out: affinity of GTP for the binding domain of Rho subfamily members
Measurement name: Kd

Incoming: Query (compound): `Nc1nc2c(ncn2[C@@H]2O[C@H](COP(=O)(O)OP(=O)(O)OP(=O)(O)O)[C@@H](O)[C@H]2O)c(=O)[nH]1` ; field requested: Kd
Outgoing: 120 to 170 nM

----------
Test system: KRas wild type
Experimental protocol: Ras GTP binding domain inhibition assay (Cy3-GTP/Cy5-GTP competition)
Parameters: species or system human
Details: 20 μM; with SOS (Table 7A)
Measurement name: KRas wild type + SOS: % inh.

- CO[C@H]1C[C@@H](Nc2nc(-c3nccn3C)nc3sc(-c4cnn(C)c4)c(-c4ccccc4)c23)C1 [drawing 892]: D (76-100% inhibition)
- COC1CCN(c2nc(-c3nccn3C)nc3sc(-c4cccc(O)c4F)c(-c4ccccc4)c23)C1 (stereo not shown) [drawing 890]: C (51-75% inhibition)
- COCCNC(=O)c1sc2nc(-c3nccn3C)nc(N[C@@H]3CC[C@H](OC)C3)c2c1-c1ccccc1 [drawing 925]: D (76-100% inhibition)
- COCCNC(=O)c1sc2nc(-c3nccn3C)nc(N[C@H]3C[C@@H](OC)C3)c2c1-c1ccccc1 [drawing 921]: C (51-75% inhibition)

----------
# Lookup of reported inhibition at 20 µM keyed by entry
Study system: Rac-1 (Homo sapiens)
Experimental protocol: Ras GTP binding domain inhibition assay (Cy3-GTP/Cy5-GTP competition)
Details: with SOS, read-out: Rac-1 + SOS: % inh.

Reference set, count: 5
• Oc1nc(-c2cn3cccnc3n2)nc2c(-c3ccccn3)csc12 [drawing 983] = 0%
• COCCCNc1nc(-c2nccn2C)nc2sc(-c3ccn(C)n3)c(-c3ccc(OC)cc3)c12 [drawing 1005] = 0%
• Cc1c(-c2ccn(C)n2)sc2nc(-c3nccn3C)nc(NCCCC(=O)N(C)C)c12 [drawing 1052] = 76 to 100%
• COC1CCN(c2nc(-c3nccn3C)nn3cc(-c4ccccc4)c(-c4ccccc4)c23)C1 (centres unmarked) [drawing 931] = 51 to 75%
• CO[C@H]1CC[C@@H](Nc2nc(-c3nccn3C)nc(C(=O)N3CCc4c(O)cccc4C3)c2C)C1 [drawing 1036] = 51 to 75%

Incoming: Query (molecule): COCCNC(=O)c1sc2nc(-c3nccn3C)nc(N[C@H]3C[C@@H](OC)C3)c2c1-c1ccccc1 [drawing 1056] ; field requested: inhibition at 20 µM
Outgoing: 76 to 100%

Incoming: Query (molecule): COCCNc1nc(-c2nccn2C)nc2sc(-c3cccc(OC)c3Cl)c(-c3ccccc3)c12 [drawing 1007] ; field requested: inhibition at 20 µM
Outgoing: 26 to 50%

Incoming: Query (molecule): CN(C)CCOCCNc1nc(-c2nccn2C)nc2sc(-c3ccn(C)n3)c(-c3ccccc3)c12 [drawing 1042] ; field requested: inhibition at 20 µM
Outgoing: 51 to 75%

----------
Test system: KRas G12C mutant
Experimental protocol: Ras GTP binding domain inhibition assay (Cy3-GTP/Cy5-GTP competition)
Design: species or system human
Details: 20 μM; without SOS (Table 7A)
Measurement name: KRas G12C mutant: % inh.

Reference set, count: 5
* COC1CCN(C(=O)c2sc3nc(-c4nccn4C)nc(N[C@H]4C[C@@H](OC)C4)c3c2-c2ccccc2)C1 (some centres unmarked) [drawing 923] | C (51-75% inhibition)
* COc1c(O)nc(-c2ccccn2)nc1Oc1ccc(C(=O)N(C)C)cc1 [drawing 879] | B (26-50% inhibition)
* CO[C@H]1C[C@@H](Nc2nc(-c3nccn3C)nc3sc(-c4ccn(C)n4)c(C)c23)C1 [drawing 914] | C (51-75% inhibition)
* CO[C@H]1C[C@@H](Nc2nc(-c3nccn3C)nc3sc(-c4ccn(C)n4)c(-c4ccccc4)c23)C1.Cl | C (51-75% inhibition)
* COC1CCC(Nc2nc(-c3nccn3C)nc3sc(-c4cccc(O)c4F)c(-c4ccccc4)c23)C1 (centres unmarked) [drawing 885] | B (26-50% inhibition)

Now consider the entry below.
Incoming: Query (compound): CO[C@H]1CC[C@@H](Nc2nc(-c3nccn3C)nc3sc(-c4ccn(C(C)C)n4)c(-c4ccccc4)c23)C1 [drawing 912] ; field requested: KRas G12C mutant: % inh.
Outgoing: C (51-75% inhibition)

Each recorded value in this set is attributed to patent US20250296938A1.
